The values you see were collected from PubChem BioAssay (NCATS).

- assay-method-text: BET inhibitor-based combinations targeting novel dependencies in MECOM-rearranged (r) AML: AML-191 cell line (AID 2202236; also: nearly all actives have a fitted effect of over 35% in size; also: potency is read from the fitted curve at half-maximal effect)
- test-parameters: AML-191 viability, CellTiter-Glo luminescence, 48 h; series mostly up to 46 µM
Inconclusive results are not listed. Calls of active or inactive are those of the source. Calls follow the shape of the dose curve; as a rule, active = well fitted inhibition curve with a large enough effect; inconclusive = small, poorly fitted or top-dose-only effect; inactive = flat fitted curve, though single readings scatter.
metric-name: Potency

Use these answered entries as a reference point.
compound	Potency
CC(=O)O[C@]1(C(C)=O)CC[C@H]2[C@@H]3C[C@H](C)C4=CC(=O)CC[C@]4(C)[C@H]3CC[C@@]21C	9.34 µM (active)
Clc1ccc2ncc(-c3cccc(NC4CNC4)n3)n2c1	inactive
C1=C/COCc2cc(ccc2OCCN2CCCC2)Nc2nccc(n2)-c2cccc(c2)COC/1	1.86 µM (active)
CC(C)C[C@@H](N)[C@H](O)C(=O)N[C@H](C(=O)N[C@H](C(=O)N[C@@H](CC(=O)O)C(=O)O)C(C)C)C(C)C	inactive
NS(=O)(=O)c1cc2c(cc1Cl)NCNS2(=O)=O	inactive
COc1c(C)c2c(c(O)c1C/C=C(\C)CCC(=O)O)C(=O)OC2	1.05 µM (active)
O=[N+]([O-])c1cncn1CCN1CCOCC1	inactive
CCN(CCO)CCCOc1ccc2c(Nc3cc(CC(=O)Nc4cccc(F)c4)[nH]n3)ncnc2c1	0.0934 µM (active)
COCCCOc1cc(C[C@@H](C[C@H](N)[C@@H](O)C[C@H](C(=O)NCC(C)(C)C(N)=O)C(C)C)C(C)C)ccc1OC	inactive
C=C(C)[C@@H]1CC[C@]2(C(=O)O)CC[C@]3(C)[C@H](CC[C@@H]4[C@@]5(C)CC[C@H](O)C(C)(C)[C@@H]5CC[C@]43C)[C@@H]12	inactive

Query: What Potency value was documented for this compound, O=C1C[C@@H](c2ccc(O)cc2)Oc2cc(O)cc(O)c21 ?
Response: inactive

Query: What Potency value was documented for this compound, FC(F)(F)c1ccc(CNc2ccc(Cc3c[nH]c4ncccc34)cn2)cc1 ?
Response: 13.2 µM (active)

Query: What Potency value was documented for this compound, COCCN1CCN(Cc2ccc(-c3n[nH]c4c3C(=O)c3c(NC(=O)NN5CCOCC5)cccc3-4)cc2)CC1 ?
Response: 0.186 µM (active)

Query: What Potency value was documented for this compound, O=c1oc2c(O)c(O)cc3c(=O)oc4c(O)c(O)cc1c4c23 ?
Response: inactive

Query: What Potency value was documented for this compound, CC(=O)OCC(=O)[C@@]1(O)CC[C@H]2[C@@H]3CCC4=CC(=O)CC[C@]4(C)[C@H]3C(=O)C[C@@]21C ?
Response: inactive

Query: What Potency value was documented for this compound, CC(C)C[C@H](NC(=O)[C@@H](NC(=O)c1cccc(-c2ccccc2)n1)[C@@H](C)O)B(O)O ?
Response: 0.0811 µM (active)

Query: What Potency value was documented for this compound, CC1CCC(C(=O)N(c2cc(C#CC(C)(C)C)sc2C(=O)O)C2CCC(O)CC2)CC1 (stereo not drawn) ?
Response: 18.6 µM (active)

Query: What Potency value was documented for this compound, Cc1c(F)cc(C(=O)NC2CC2)cc1-c1c(F)cn2c(C(C)(C)C)nnc2c1F ?
Response: inactive

---

- study-system: Cellular tumor antigen p53 (Homo sapiens)
- assay-method-text: Primary qHTS for small molecule compounds that upregulate eGFP-tagged delta133p53alpha (in N-terminal) cells. (AID 2060322); also: nearly all actives have a fitted effect of over 75% in size; also: potency is read from the fitted curve at half-maximal effect;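 as to activation: cells pre-induced with doxycycline then dosed without doxycycline; 0% = DMSO vehicle and 100% = reference activator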
- test-parameters: NCI-H358 eGFP-delta133p53alpha fluorescence, 24 h
- Excerpt: Assay Development and Screening Technology National Center for Advancing Translational Sciences (NCATS), National Institute of Health (NIH), Rockville, Maryland Cellular senescence (CS) is one of the hallmarks of aging and age-related diseases. […] Here we report the development and validation of a cell-based quantitative high throughput screening (qHTS) assay in 1,536-well format. […]
Results filed as inconclusive are left out. The source made the active and inactive calls. Calls follow the shape of the dose curve; as a rule, active = well fitted activation curve with a large enough effect; inconclusive = small, poorly fitted or top-dose-only effect; inactive = no such curve, though single readings can be large or run the other way.
metric-name: Potency

Use these answered entries as a reference point.
compound	assay-value
CC1(C)OC[C@H](NC(=O)Nc2ccc(Br)cc2Br)[C@H](c2ccccc2)O1	19 µM (active)
C#CC[C@H](c1nc2cc(Cl)ccc2c(=O)n1Nc1ccccc1)N(CCCN)C(=O)c1cccc(Cl)c1F	4.78 µM (active)
Cn1cc(C=CC(=O)c2cccc(F)c2)cc1C=CC(=O)NO	38.5 µM (active)
CC(C)(O)CC(=O)NCCn1ccc2ncnc(Nc3ccc(Oc4cccc(C(F)(F)F)c4)c(Cl)c3)c21	24.3 µM (active)
C=C(C)C(=O)O[C@H]1[C@H]2C(=C)C(=O)O[C@@H]2C[C@@H](C)/C=C\C(=O)[C@](C)(O)[C@@H]1OC(C)=O	4.65 µM (active)
COC(=O)[C@]12CCC(C)(C)C[C@@H]1[C@@H]1C(=O)C=C3[C@@]4(C)C=C(C#N)C(=O)C(C)(C)[C@@H]4CC[C@@]3(C)[C@]1(C)CC2	10.9 µM (active)

Query: What Potency value was documented for this compound, CCc1c2c(nc3ccc(O)cc13)-c1cc3c(c(=O)n1C2)COC(=O)[C@]3(O)CC ?
Response: 1.51 µM (active)

Query: What Potency value was documented for this compound, C#CC(=O)N(c1ccc(OC)cc1OC)C(C(=O)NCC(=O)OCC)c1cccs1 (configuration not stated) ?
Response: 7.57 µM (active)

Query: What Potency value was documented for this compound, COc1cc(N2CCC(N3CCN(C)CC3)CC2)ccc1Nc1ncc(Cl)c(Nc2ccccc2P(C)(C)=O)n1 ?
Response: 3.01 µM (active)

Query: What Potency value was documented for this compound, C=C1CC2OC(=O)C(=C)C2C(O)/C=C(\C)CCC1O (configuration not stated) ?
Response: 26.9 µM (active)

Query: What Potency value was documented for this compound, COc1ccc2c(c1OC)C(=O)O[C@@H]2[C@H]1c2c(cc3c(c2OC)OCO3)CCN1C ?
Response: 21.9 µM (active)

Query: What Potency value was documented for this compound, CN1CCC(CNc2ccc3ncc(-c4cccc(OC(F)(F)F)c4)n3n2)CC1 ?
Response: 26.9 µM (active)

Query: What Potency value was documented for this compound, C=CC(=O)Nc1cccc(Nc2nc(Nc3ccc(OCCOC)cc3)ncc2F)c1 ?
Response: 9.53 µM (active)

Query: What Potency value was documented for this compound, Cc1cc(O)c(-c2ccc([C@@H](C)CN(C)C)cc2)c2c1[nH]c(=O)c1sccc12 ?
Response: 0.301 µM (active)

Query: What Potency value was documented for this compound, C=C1CC[C@@H]2[C@](C)(CO)[C@H](O)CC[C@@]2(C)[C@@H]1C/C=C1/C(=O)OC[C@@H]1O ?
Response: 11.7 µM (active)

Query: What Potency value was documented for this compound, COc1cccc2nc(-c3cccs3)nc(NN3C(=O)C=C(C)C3=O)c12 ?
Response: 19.3 µM (active)

Query: What Potency value was documented for this compound, CS[C@H]1SC[C@@H]2C(=O)N(C)[C@H](C(C)C)C(=O)OC[C@H](NC(=O)c3cnc4ccccc4n3)C(=O)N[C@H](C)C(=O)N(C)[C@@H]1C(=O)N(C)[C@H](C(C)C)C(=O)OC[C@H](NC(=O)c1cnc3ccccc3n1)C(=O)N[C@H](C)C(=O)N2C ?
Response: 0.0343 µM (active)

---

- study-system: Cellular tumor antigen p53 (Homo sapiens)
- assay-method-text: Primary qHTS for small molecule compounds that upregulate eGFP-tagged delta133p53alpha (in N-terminal) cells. (AID 2060322); also: nearly all actives have a fitted effect of over 75% in size;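 as to activation: cells pre-induced with doxycycline then dosed without doxycycline; 0% = DMSO vehicle and 100% = reference activator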
- test-parameters: NCI-H358 eGFP-delta133p53alpha fluorescence, 24 h; active compounds read high
Inconclusive results are not listed.
metric-name: activation (%)
Numbers only; they are read as %.

Use these answered entries as a reference point.
molecule	metric-name	measurement-unit	assay-value
COc1ccc(/C=C/C(=O)O[C@@H]2[C@@H](O[C@@H]3O[C@H](CO)[C@@H](O)[C@H](O)[C@H]3O)[C@@H](O)[C@H](O[C@H]3C4C=CO[C@@H](O[C@@H]5O[C@H](CO)[C@@H](O)[C@H](O)[C@H]5O)C4[C@@]4(CO)O[C@@H]34)O[C@H]2C)cc1 (stereo partly drawn)	activation	%	-9.92
CC[C@H](C=C[C@@H](C)[C@H]1CC[C@H]2[C@@H]3CC=C4C[C@@H](O)CC[C@]4(C)[C@@H]3CC[C@]12C)C(C)C	activation	%	-9.05
CC(C)=CCC/C(C)=C/CO	activation	%	-11.9
CC(CNS(=O)(=O)C(C)C)c1ccc(-c2ccc(C#N)cc2)cc1 (stereo not drawn)	activation	%	-9
c1ccc(Nc2nc3c(s2)CCCc2[nH]ncc2-3)nc1	activation	%	8.59
O=C(c1c(F)ccc(NS(=O)(=O)N2CC[C@@H](F)C2)c1F)c1c[nH]c2ncc(-c3cnc(C4CC4)nc3)cc12	activation	%	17
CC1=CC(=O)CC(C)(CO)C1(O)/C=C/C(C)O[C@@H]1O[C@H](CO)[C@@H](O)[C@H](O)[C@H]1O (stereo partly drawn)	activation	%	-9.82

Query: Return activation measured with Cellular tumor antigen p53 (Homo sapiens) given this molecule: Cc1cc(C)cc(OCC2CNC(=O)O2)c1 (stereo not drawn)
Response: -11.9
